Task for the reader: assign each of the following binders its reported Kd.
Target: T1, Human Notch4-NRR domain Fc fusion protein (human, UniProt Q99466 1046-1445, limits assumed)
T1 construct: Expressed in a CHO cell line, used from culture supernatant; 1 is named; also called Human Notch4-NRR Fusion Protein; not shown: Fc
T1 sequence: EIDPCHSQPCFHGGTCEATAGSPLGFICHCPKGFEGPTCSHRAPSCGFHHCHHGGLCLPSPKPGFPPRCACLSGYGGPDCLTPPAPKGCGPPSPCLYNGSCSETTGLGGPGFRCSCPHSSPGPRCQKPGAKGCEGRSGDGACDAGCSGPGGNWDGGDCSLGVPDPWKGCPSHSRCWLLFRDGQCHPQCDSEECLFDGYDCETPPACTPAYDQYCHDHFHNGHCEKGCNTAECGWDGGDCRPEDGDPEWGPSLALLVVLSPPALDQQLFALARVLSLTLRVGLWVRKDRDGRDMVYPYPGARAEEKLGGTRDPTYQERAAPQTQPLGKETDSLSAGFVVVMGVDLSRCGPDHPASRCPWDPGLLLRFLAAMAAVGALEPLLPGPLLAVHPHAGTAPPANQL
Experiment: SPR (Biacore) as for Table 30; Notch4-NRR-Fc captured, antibody injected; averaged, N=4
One number for each entry, in nM.

// solved cases for Kd follow
HK2L1 (antibody, human IgG2, kappa, V domains shown, Humanized IgG2 (V234A, G237A)/κ; also called No. 11) VH: EVQLVESGGGLVQPGGSLRLSCAASGFTFSSYGMSWVRQAPGKGLELVSTINSNGGRTYYPDSVKGRFTISRDNSKNTLYLQMGSLRAEDMAVYYCARDQGFAYWGQGTLVTVSS VL: DIQMTQSPSSLSASVGDRVTITCKASQDVGTAVAWYQQKPGKVPKLLIYWASTRHTGVPSRFSGSGSGTDFTLTISSLQPEDVATYYCQQYSSYPWTFGQGTKVEIKR    1.84
HA2L1 (antibody, human IgG2, kappa, V domains shown, Humanized IgG2 (V234A, G237A)/κ; also called No. 26) VH: EVQLVESGGGLVQPGGSLRLSCAASGFTFSSYGMSWVRQAPGKGLELVSTINSNGGRTYYANSVKGRFTISRDNSKNTLYLQMGSLRAEDMAVYYCARDQGFAYWGQGTLVTVSS VL: DIQMTQSPSSLSASVGDRVTITCKASQDVGTAVAWYQQKPGKVPKLLIYWASTRHTGVPSRFSGSGSGTDFTLTISSLQPEDVATYYCQQYSSYPWTFGQGTKVEIKR    1.76
HK3L2 (antibody, human IgG2, kappa, V domains shown, Humanized IgG2 (V234A, G237A)/κ; also called No. 17) VH: EVQLVESGGGLVQPGGSLRLSCAASGFTFSSYGMSWVRQAPGKGLELVATINSNGGRTYYPDSVKGRFTISRDNSKNTLYLQMGSLKAEDMAVYYCARDQGFAYWGQGTLVTVSS VL: DIQMTQSPSSLSASVGDRVTITCKASQDVGTAVAWYQQKPGKVPKLLIYWASTRHTGVPSRFSGSGSGTDFTLTISSLQPEDVATYFCQQYSSYPWTFGQGTKVEIKR    1.29

Items follow; give Kd for each.
1. HK2L2 (antibody, human IgG2, kappa, V domains shown, Humanized IgG2 (V234A, G237A)/κ; also called No. 12) VH: EVQLVESGGGLVQPGGSLRLSCAASGFTFSSYGMSWVRQAPGKGLELVSTINSNGGRTYYPDSVKGRFTISRDNSKNTLYLQMGSLRAEDMAVYYCARDQGFAYWGQGTLVTVSS VL: DIQMTQSPSSLSASVGDRVTITCKASQDVGTAVAWYQQKPGKVPKLLIYWASTRHTGVPSRFSGSGSGTDFTLTISSLQPEDVATYFCQQYSSYPWTFGQGTKVEIKR
2. HA2L2 (antibody, human IgG2, kappa, V domains shown, Humanized IgG2 (V234A, G237A)/κ; also called No. 27) VH: EVQLVESGGGLVQPGGSLRLSCAASGFTFSSYGMSWVRQAPGKGLELVSTINSNGGRTYYANSVKGRFTISRDNSKNTLYLQMGSLRAEDMAVYYCARDQGFAYWGQGTLVTVSS VL: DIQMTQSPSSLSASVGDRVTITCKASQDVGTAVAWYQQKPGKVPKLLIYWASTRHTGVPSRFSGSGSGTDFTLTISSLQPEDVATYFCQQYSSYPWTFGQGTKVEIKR
3. HK3L1 (antibody, human IgG2, kappa, V domains shown, Humanized IgG2 (V234A, G237A)/κ; also called No. 16) VH: EVQLVESGGGLVQPGGSLRLSCAASGFTFSSYGMSWVRQAPGKGLELVATINSNGGRTYYPDSVKGRFTISRDNSKNTLYLQMGSLKAEDMAVYYCARDQGFAYWGQGTLVTVSS VL: DIQMTQSPSSLSASVGDRVTITCKASQDVGTAVAWYQQKPGKVPKLLIYWASTRHTGVPSRFSGSGSGTDFTLTISSLQPEDVATYYCQQYSSYPWTFGQGTKVEIKR

1: 1.38; 2: 1.41; 3: 1.76
